- Target or system: Large T antigen (Simian virus 40)
- Assay name: SV40 large T antigen inhibitors, biochemical (AID 1903)
- Settings: SV40 large T antigen ATPase/helicase inhibition assay; at 20 µM; stronger effect = higher value
In all, about 310,000 compounds went through this assay and about 1,200 (0.39%) were called active. A selection follows. Potency and affinity values are given separately.
Property: inhibition (%)
Write down the numeric answer in % and omit the unit.

Before answering, review these 5 worked examples.
• COc1ccc(-c2cc(=O)oc3c(C)c(O)ccc23)cc1 = 6.62
• CC(=O)CC1(C)OC(N)=C(C#N)C1(C#N)C#N (stereo unspecified) = 5.62
• COc1ccc(CCN=C(N)NS(=O)(=O)c2ccc(C)c(C)c2)cc1 = 23.6
• O=C(CSc1nnc(-c2ccccc2)n1CC1CCCO1)N1CCCC1 (stereo unspecified) = 12.8
• Cc1csc(-c2cnn(-c3ccccc3)c2NC(=O)c2cccc(C(F)(F)F)c2)n1 = 0.685

Indicate the recorded inhibition value for this compound: COc1ccc(NC(=O)c2ccc3c(c2)NC(=O)CO3)cc1OC
-1.26

---

- Target or system: Large T antigen (Simian virus 40) (UniProt P03070)
- Sequence (P03070 whole entry, looked up): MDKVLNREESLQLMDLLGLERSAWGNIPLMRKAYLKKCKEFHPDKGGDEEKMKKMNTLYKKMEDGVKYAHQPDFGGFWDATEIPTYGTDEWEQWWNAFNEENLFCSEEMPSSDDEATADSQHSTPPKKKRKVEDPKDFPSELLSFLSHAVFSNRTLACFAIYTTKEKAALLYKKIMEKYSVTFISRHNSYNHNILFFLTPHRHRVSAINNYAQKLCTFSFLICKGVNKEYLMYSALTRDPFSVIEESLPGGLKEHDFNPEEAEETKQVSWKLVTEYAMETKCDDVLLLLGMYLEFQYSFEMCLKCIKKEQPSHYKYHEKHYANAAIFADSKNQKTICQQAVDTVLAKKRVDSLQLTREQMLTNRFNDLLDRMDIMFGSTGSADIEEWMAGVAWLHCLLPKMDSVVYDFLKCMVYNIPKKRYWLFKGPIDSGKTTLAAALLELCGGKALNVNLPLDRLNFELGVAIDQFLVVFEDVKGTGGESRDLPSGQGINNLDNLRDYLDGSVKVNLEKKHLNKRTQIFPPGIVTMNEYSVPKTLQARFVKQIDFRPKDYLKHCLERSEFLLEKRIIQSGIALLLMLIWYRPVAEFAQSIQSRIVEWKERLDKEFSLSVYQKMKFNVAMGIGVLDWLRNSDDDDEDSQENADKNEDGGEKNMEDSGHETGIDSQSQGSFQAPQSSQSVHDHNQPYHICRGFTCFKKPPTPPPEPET
- Assay name: SV40 large T antigen inhibitors, biochemical (AID 1903)
- Settings: SV40 large T antigen ATPase/helicase inhibition assay; at 20 µM; stronger effect = higher value
About 1,200 (0.39%) of roughly 310,000 compounds were called active. Not all results are given here. Entries with a potency or affinity are not part of this list.
Property: inhibition (%)
I only need the number, in %, no unit after it.

// below: answered compounds
• Cc1ccccc1OCCC(=O)Nc1ccc(F)c(Cl)c1 = 7.2
• COc1cc(/C=N/N=C(\N)c2nonc2N)cc(OC)c1O = 36.3
• COC(=O)c1ccc(-c2sc3nc(N4CCOCC4)c4c(c3c2N)CC(C)(C)OC4)o1 = -1.68
• N/C(=N\N=C\c1cccc(O)c1)c1nonc1N = 18.6
• N/C(=N\OC(=O)Cc1cccs1)c1cccc([N+](=O)[O-])c1 = 3.85
• CNC(=O)COc1coc(CN2CCN(c3ccc(OC)cc3)CC2)cc1=O = 21.7
• COc1ccc(/C=N/N=C(\N)c2nonc2N)cc1OC = 22.7
• CC1(C)Cc2c(c(N3CCOCC3)nc3sc(-c4ccc(C(=O)O)o4)c(N)c23)CO1 = 21.9

Please report the measured inhibition for CCCCN(CCCC)CCCNC(=O)C12CN(Cc3ccccc3)CC1C(c1cccc([N+](=O)[O-])c1)=NO2 (stereo unspecified) tested on Large T antigen (Simian virus 40) (UniProt P03070).
6.72

Using Large T antigen (Simian virus 40) (UniProt P03070) as the test system, report measured inhibition of NC1=NC(=O)CC(C(=O)NCCc2ccccc2)S1 (stereo unspecified) .
13.9

Tell me inhibition of CCOC(=O)c1ccc(N2CSC3=C(C#N)C(c4cccs4)CC(=O)N3C2)cc1 (stereo unspecified) when tested on Large T antigen (Simian virus 40) (UniProt P03070).
28.9

---

- Target or system: Large T antigen (Simian virus 40) (UniProt P03070)
- Assay name: SV40 large T antigen inhibitors, biochemical (AID 1903)
- Settings: SV40 large T antigen ATPase/helicase inhibition assay; at 20 µM; stronger effect = higher value
Screen size: about 310,000 compounds; about 1,200 (0.39%) were called active. Not all results are given here. Entries with a potency or affinity are not part of this list.
Definition: the class of an entry is the range in low: < 6%; medium: ≥ 6% and < 20%; high: ≥ 20% that contains its inhibition.

Consider the following illustrative entries.
* O=C(O)CC(NS(=O)(=O)c1cccc2nsnc12)c1ccc(F)cc1 (configuration not stated) | low
* CCc1nnc(SCc2ccc(C(=O)OC)o2)n1N | medium
* COc1ccc(/C=C2/N=C3CCCCCN3C2=O)cc1 | low
* CC1CN=C(Nc2cccc(S(=O)(=O)N(C)C)c2)S1 (configuration not stated) | high
* Oc1ccc(N=Nc2ccccc2)cc1 | medium

Classify this molecule: CCOC(=O)c1c(S(=O)(=O)NCc2ccc(OC)cc2)c(C)n(C)c1C
medium

Please indicate the class for O=C(COC(=O)C1(c2ccccc2)CC1)NNC(=O)c1ccccc1 based on its inhibition.
medium

# classify by inhibition band: CC1(C)CC(=O)C(N=Nc2ccc(-c3ccccc3)cc2)=C(O)C1
high

Please classify: O=C(COc1ccccc1[N+](=O)[O-])N/N=C/c1ccc(O)c([N+](=O)[O-])c1
medium

GET /class?item= CN(C)c1ccc(/C=c2\sc3n(c2=O)CCCN=3)cc1
medium

The entry to classify is COc1ccc(F)cc1S(=O)(=O)N1CCCC(C)C1 (configuration not stated) ; which class holds it?
low
